- assayedTarget: full-length Spike of SARS-CoV-2 (UniProtKB-P0DTC2) expressed on 293T cells (SARS-CoV-2, UniProt P0DTC2)
- methodDescription: flow cytometry on cells

- binder: "Ab326 recombinant monoclonal antibody (IgG) (antibody, V domains shown) VH: EVQLVESGGGVVQPGRSLRLSCAASGFTFSHYPMHWVRQAPGRGLEWVAVISYDGSNQHYVDSVKGRFTISRDNSKNTLYLQMNSLRAEDTAVYFCASLITMIRGVPDYWGQGTLVTVSS VL: DIQMTQSPSSLSASVGDRVTITCRASQSISNYLNWYQQKPGKAPNLLIFAASSLQSGVPSRFSGSGSGTEFTLTISSLQPEDFAAYYCLQTYSTPRTFGQGTRLEIK"
  binding result: "binds"

Reference source for all entries: paper doi:10.1101/2022.06.21.496751
